Tested on: CCRF-CEM
Assay Protocol: Concentration required to inhibit human immunodeficiency virus-1 (strain IIIb) induced cytopathogenicity in CEM cells by 50%
Format: functional, cell-based
List of EC50 values.

- CCCCCCCCCC#Cc1cc2cn(COCCO)c(=O)nc2o1: > 10 µM

Input line: Fill blank: measured EC50 of the molecule `CCCCCc1cc2cn(COCCO)c(=O)nc2o1` is ____.
Output line: > 50 µM

Input line: Now try `CCCCCCCCc1cc2cn(COCCO)c(O)nc-2n1` .
Output line: > 50 µM

Input line: Next molecule up: `CCCCCCCCCCCc1cc2cn(COCCO)c(O)nc-2n1`
Output line: > 10 µM

Input line: Similarly, `CCCCCCc1cc2cn(COCCO)c(=O)nc2o1` ?
Output line: > 50 µM

Input line: Likewise for `CCCCCCCCC#Cc1cc2cn(COCCO)c(=O)nc2o1` ?
Output line: > 10 µM

Input line: Subsequent entry: `O=c1nc2occc2cn1COCCO`
Output line: > 250 µM

Input line: Now this one: `CCCCCCc1cc2cn(COCCO)c(O)nc-2n1`
Output line: > 50 µM

Input line: One more molecule: `CCCCCCCC#Cc1cc2cn(COCCO)c(=O)nc2o1`
Output line: > 10 µM
